System: chickweed (Stellaria media)
Experiment: Test B postemergence plant response
Assay type: in vivo
Settings: Postemergence, 250 g ai/ha; scale 0 to 100 (0 no effect, 100 complete control); 13 to 15 days
For each record, write down the corresponding Plant response rating, Chickweed.
Numbers only.

Examples with their reported Plant response rating, Chickweed follow.
{"compound": "CCCn1c(-c2cccc(C(F)(F)F)c2)ncc(C(=O)C2=C(O)CCCC2=O)c1=O [Compound 155]", "measured.parameter": "Plant response rating, Chickweed", "result": 100}
{"compound": "O=C1CCCC(O)=C1C(=O)c1cnc(-c2ccc(F)cc2)n(C2CCCCC2)c1=O [Compound 197]", "measured.parameter": "Plant response rating, Chickweed", "result": 100}
{"compound": "CCCCn1c(-c2cccc(F)c2)ncc(C(=O)C2=C(O)C3CCC(C3)C2=O)c1=O (stereo not shown) [Compound 237]", "measured.parameter": "Plant response rating, Chickweed", "result": 100}

Attention now shifts to the item below.
Inquiry: Could you share which Plant response rating, Chickweed value was measured for CCCn1c(-c2ccsc2)ncc(C(=O)C2=C(O)C3CCC(C3)C2=O)c1=O (stereo not shown) [Compound 227] ?
Reply text: 90

----------
System: wheat (Triticum aestivum)
Test: Test A pre-/postemergence plant response
Type: in vivo
Conditions: Postemergence, 125 g ai/ha; 0 to 100 scale where 0 is no effect and 100 is complete control
measured.parameter: Plant response rating, Wheat
Answers are plain numbers.

{"compound": "Cc1ccccc1-c1ncc(C(=O)C2=C(O)CCCC2=O)c(=O)n1-c1ccccc1 [Compound 82]", "subject.of.test": "wheat (Triticum aestivum)", "result": 0}
{"compound": "COCCn1c(-c2cccc(Cl)c2)ncc(C(=O)C2=C(O)CCCC2=O)c1=O [Compound 147]", "subject.of.test": "wheat (Triticum aestivum)", "result": 20}
{"compound": "CCCc1ncc(C(=O)C2=C(O)CCCC2=O)c(=O)n1CC1CCCO1 (stereo not drawn) [Compound 74]", "subject.of.test": "wheat (Triticum aestivum)", "result": 0}
{"compound": "O=C1CCCC(O)=C1C(=O)c1cnc(-c2ccccc2)n(C2CCSCC2)c1=O [Compound 164]", "subject.of.test": "wheat (Triticum aestivum)", "result": 0}
{"compound": "Cc1cc(-n2c(-c3cccc(Cl)c3)ncc(C(=O)C3=C(O)CCCC3=O)c2=O)ccc1F [Compound 133]", "subject.of.test": "wheat (Triticum aestivum)", "result": 20}

For every record below, what is its Plant response rating, Wheat?
1. CCCn1c(-c2ccsc2)ncc(C(=O)C2=C(O)C3CCC(C3)C2=O)c1=O (stereo not drawn) [Compound 227]
2. CCCCn1c(-c2cccc(F)c2)ncc(C(=O)C2=C(O)CCCC2=O)c1=O [Compound 125]
3. COc1ccc(-n2c(-c3ccccc3)ncc(C(=O)C3=C(O)CCCC3=O)c2=O)cc1OC [Compound 218]
4. Cc1ccccc1-n1c(-c2cc(F)cc(F)c2)ncc(C(=O)C2=C(O)CCCC2=O)c1=O [Compound 159]
5. COCCCn1c(-c2cccc(C)c2)ncc(C(=O)C2=C(O)CCCC2=O)c1=O [Compound 118]

Reply text:
[0, 0, 0, 10, 0]

For every record below, what is its Plant response rating, Wheat?
1. Cc1ccc(C)c(-n2c(-c3ccccc3)ncc(C(=O)c3cnoc3C3CC3)c2=O)c1 [Compound 222]
2. Cc1ccc(-n2c(-c3cccc(F)c3)ncc(C(=O)C3=C(O)CCCC3=O)c2=O)cc1 [Compound 202]
3. Cc1cc(-n2c(-c3cccc(F)c3)ncc(C(=O)C3=C(O)CCCC3=O)c2=O)ccc1F [Compound 191]
4. C=CCCn1c(-c2ccccc2)ncc(C(=O)C2=C(O)CCCC2=O)c1=O [Compound 214]
5. CCCn1c(-c2ccc3c(c2)OCCO3)ncc(C(=O)C2=C(O)CCCC2=O)c1=O [Compound 149]

Reply text:
1: 0; 2: 20; 3: 0; 4: 0; 5: 20

----------
System: corn (Zea mays)
Test: Test B pre-/postemergence plant response
Assay type: in vivo
Conditions: Postemergence, 31 g ai/ha; 0 to 100 scale (0 no effect, 100 complete control)
measured.parameter: Plant response rating, Corn
Answers are plain numbers.

{"compound": "CCn1c(-c2ccccc2)ncc(C(=O)C2=C(O)C3CCC(C3)C2=O)c1=O (stereo not shown)", "result": 5}
{"compound": "COCCCn1c(-c2cccc(F)c2)ncc(C(=O)C2=C(O)C3CCC(C3)C2=O)c1=O (stereo not shown)", "result": 80}
{"compound": "CCCn1c(-c2cc(F)cc(F)c2)ncc(C(=O)C2=C(O)CCCC2=O)c1=O", "result": 25}

Attention now shifts to the item below.
Inquiry: Could you share which Plant response rating, Corn value was measured for O=C1CCCC(O)=C1C(=O)c1cnc(-c2ccccc2)n(C2CCSCC2)c1=O ?
Reply text: 15

----------
Tested on: wheat (Triticum aestivum)
Assay: Test A pre-/postemergence plant response
Assay type: in vivo
Settings: Preemergence, 500 g ai/ha; visual injury, 0 to 100 scale (0 no effect, 100 complete control), approx. ten days
measured.parameter: Plant response rating, Wheat
Answers are plain numbers.

Examples with their reported Plant response rating, Wheat follow.
{"molecule": "Cc1ccccc1-n1c(-c2ccccc2)ncc(C(=O)C2=C(O)CCCC2=O)c1=O [Compound 12]", "Plant response rating, Wheat": 0}
{"molecule": "COCCn1c(-c2cccc(F)c2)ncc(C(=O)C2=C(O)CCCC2=O)c1=O [Compound 123]", "Plant response rating, Wheat": 20}
{"molecule": "CCCCc1ncc(C(=O)C2=C(O)CCCC2=O)c(=O)n1-c1ccc(C)cc1 [Compound 67]", "Plant response rating, Wheat": 0}

For every record below, what is its Plant response rating, Wheat?
1. Cc1cc(C)cc(-n2c(-c3ccccc3)ncc(C(=O)C3=C(O)CCCC3=O)c2=O)c1 [Compound 33]
2. O=C1CCCC(O)=C1C(=O)c1cnc(-c2ccccc2Br)n(-c2ccccc2)c1=O [Compound 71]

Reply text:
1. 10
2. 0

----------
Tested on: wheat (Triticum aestivum)
Assay: Test A pre-/postemergence plant response
Assay type: in vivo
Conditions: Preemergence, 500 g ai/ha; visual injury, 0 to 100 scale (0 no effect, 100 complete control), approx. ten days
For each record, write down the corresponding Plant response rating, Wheat.
Answers are plain numbers.

For every record below, what is its Plant response rating, Wheat?
1. O=C1CCCC(O)=C1C(=O)c1cnc(-c2cccc(Cl)c2)n(CC2CCCO2)c1=O (centres unmarked) [Compound 142]
2. CCCc1ncc(C(=O)C2=C(O)CCCC2=O)c(=O)n1Cc1ccc(OC)c(OC)c1 [Compound 84]
3. O=C1CCCC(O)=C1C(=O)c1cnc(-c2ccsc2)n(-c2ccccc2)c1=O [Compound 56]
4. CC(C)CC(=O)OC1=C(C(=O)c2cnc(-c3ccccc3)n(-c3ccccc3)c2=O)C(=O)CCC1 [Compound 83]

Reply text:
[0, 0, 0, 30]

----------
System: downy bromegrass (Bromus tectorum)
Experiment: Test B pre-/postemergence plant response
Type: in vivo
Details: Postemergence, 125 g ai/ha; scale 0 to 100 (0 no effect, 100 complete control)
measured.parameter: Plant response rating, Bromegrass, Downy
One number for each entry.

{"molecule": "COCCn1c(-c2cccc(F)c2)ncc(C(=O)C2=C(O)C3CCC(C3)C2=O)c1=O (stereo not shown)", "subject.of.test": "downy bromegrass (Bromus tectorum)", "result": 50}
{"molecule": "O=C1CCCC(O)=C1C(=O)c1cnc(-c2cccs2)n(C2CCCCC2)c1=O", "subject.of.test": "downy bromegrass (Bromus tectorum)", "result": 5}
{"molecule": "COc1ccc(-n2c(-c3ccccc3)ncc(C(=O)C3=C(O)CCCC3=O)c2=O)cc1OC", "subject.of.test": "downy bromegrass (Bromus tectorum)", "result": 20}

Attention now shifts to the item below.
Inquiry: Could you share which Plant response rating, Bromegrass, Downy value was measured for CCCn1c(-c2cccc(Br)c2)ncc(C(=O)C2=C(O)CCCC2=O)c1=O ?
Reply text: 10

----------
Test system: downy bromegrass (Bromus tectorum)
Assay: Test B pre-/postemergence plant response
Type: in vivo
Settings: 62 g ai/ha, postemergence; 0 is no effect, 100 is complete control; 13 to 15 days
Mark each entry Yes if its Bromegrass, Downy plant response rating (0 to 100 scale) sits below 5, and No for all others.

{"line.notation": "Cc1ccccc1-c1ncc(C(=O)C2=C(O)CCCC2=O)c(=O)n1-c1ccccc1", "category.label": "Yes"}
{"line.notation": "COCCCn1c(-c2cc(F)cc(F)c2)ncc(C(=O)C2=C(O)CCCC2=O)c1=O", "category.label": "No"}
{"line.notation": "COCCn1c(-c2cccc(C)c2)ncc(C(=O)C2=C(O)CCCC2=O)c1=O", "category.label": "No"}
{"line.notation": "CC(C)n1c(-c2ccccc2)ncc(C(=O)C2=C(O)CCCC2=O)c1=O", "category.label": "Yes"}
{"line.notation": "CCCc1ncc(C(=O)C2=C(O)CCCC2=O)c(=O)n1-c1ccccc1C", "category.label": "No"}

Then there is this compound:
Inquiry: For O=C1CCCC(O)=C1C(=O)c1cnc(-c2cc(F)cc(F)c2)n(C2CCCCC2)c1=O , is the recorded Bromegrass, Downy plant response rating (0 to 100 scale) below the cut-off of 5?
Reply text: No
